B1: Membrane-associated guanylate kinase, WW and PDZ domain-containing protein 2, residues 601 to 682; numbered along this chain, Q86UL8 (parent)
chain: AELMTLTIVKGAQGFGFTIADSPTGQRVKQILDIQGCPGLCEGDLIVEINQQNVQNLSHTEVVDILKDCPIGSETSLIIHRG

variants of: B1; test: abundance fitness (aPCA) (normalised: wild type 0, dead -1); higher = more abundant; growth selection in yeast, the domain comes from the species named; details: Homo sapiens
Entries get a class label from measured abundance fitness. See ranges: Low (below -0.1), Medium (-0.1 to below -0.05), High (-0.05 or more)

| variant_description | assigned_category |
| --- | --- |
| G25E | Low |
| G25A | High |
| L77D | Low |
| Q35G | High |
| L66E | Low |

Which class is correct for the following variant? E48K
Low

Which class is correct for the following variant? I19E
Low

Which class is correct for the following variant? I65T
High

Which class is correct for the following variant? G39A
Medium

Which class is correct for the following variant? Q30E
Low

Sourced from the Human Domainome abundance scans (Beltran et al. 2025)
